Give measured NF-kB SEAP reporter activity for each item. Keep answers brief.
system: RAW-Dual; assay: NF-kB SEAP reporter activity, fold change vs agonist alone; cytotoxicity flag (confluency mask): not cytotoxic; higher = enhanced NF-kB activity; details: agonist: Pam3CSK4 (TLR2/1) 0.1 ug/mL
In all, about 2,900 compounds were measured (“NF-kB SEAP reporter activity, fold change vs agonist alone”: median about 0.99, highest 2% from about 2.6 on). Shown is part of a subset that was picked to be rich in the highest values.
# print the numeric value only

Can you share its NF-kB SEAP reporter activity? I mean this molecule: CNC(=O)c1cc(Oc2ccc(NC(=O)Nc3ccc(Cl)c(C(F)(F)F)c3)c(F)c2)ccn1.O (library stock concentration (final ~1000-fold dilution): 10 mM)
0.205

Which NF-kB SEAP reporter activity reading was recorded for the molecule CN1C(CC(=O)c2ccccc2)CCCC1CC(O)c1ccccc1.Cl (configuration not stated) (library stock concentration (final ~1000-fold dilution): 10 mM) ?
1.15

Consider the molecule shown here: CCCOc1ccc(CCc2nc3cc(-c4c(C)noc4C)ccc3n2CCN2CCOCC2)cc1.Cl (library stock concentration (final ~1000-fold dilution): 10 mM) What is its recorded NF-kB SEAP reporter activity?
1.04

For the molecule shown here, CC(C)CCN1c2nc(Nc3cc(F)c(O)c(F)c3)ncc2N(C)C(=O)C1C (configuration not stated) (library stock concentration (final ~1000-fold dilution): 10 mM) , give the reported NF-kB SEAP reporter activity.
2.05

Fill in: NF-kB SEAP reporter activity of COCCOc1cc(F)c2c(Nc3ccc(NC(=O)Cn4cc(C(C)C)nn4)cc3)ncnc2c1 (library stock concentration (final ~1000-fold dilution): 10 mM) is ___
1.24

Dear colleague, I am looking for the recorded NF-kB SEAP reporter activity of the following molecule: CCOc1cc(=O)[nH]cc1-c1ccc(CC(=O)Nc2cc(C(C)(C)C(F)(F)F)on2)c(F)c1 (library stock concentration (final ~1000-fold dilution): 10 mM)
0.188

Form field: reported NF-kB SEAP reporter activity of CC(C)(C)c1cc(C(=O)/C(C#N)=N/Nc2cccc(Cl)c2)no1 (library stock concentration (final ~1000-fold dilution): 10 mM)
0.673

Look up NF-kB SEAP reporter activity for this molecule: CCOc1cc(N)c([N+](=O)[O-])cc1C(=O)NC1CCN(CC2CC=CCC2)CC1.O=C(O)C(O)C(O)C(=O)O (configuration not stated) (library stock concentration (final ~1000-fold dilution): 10 mM)
0.739

For the molecule Cc1cccc(-c2nn3c(c2-c2ccnc4ccc(C(N)=O)cc24)CCC3)n1 (library stock concentration (final ~1000-fold dilution): 10 mM) , what NF-kB SEAP reporter activity is on record?
1.21

Requested field: NF-kB SEAP reporter activity. Item: CCOc1ccc(Cc2cc(C34OCC(CO)(O3)C(O)C(O)C4O)ccc2Cl)cc1 (configuration not stated) (library stock concentration (final ~1000-fold dilution): 10 mM)
0.829

Given the entry CC(=O)OC1(C(C)=O)CCC2C3C=C(Cl)C4=CC(=O)CCC4(C)C3CCC21C (configuration not stated) (library stock concentration (final ~1000-fold dilution): 10 mM) , report its measured NF-kB SEAP reporter activity.
1.16

Which NF-kB SEAP reporter activity value is on record for c1ccc(-c2n[nH]cc2-c2ccnc3ccccc23)nc1 (library stock concentration (final ~1000-fold dilution): 2 mM) ?
0.919

For the molecule shown here, c1ccc(-c2nn3c(c2-c2ccnc4cc(OCCN5CCOCC5)ccc24)CCC3)nc1 (library stock concentration (final ~1000-fold dilution): 2 mM) , give the reported NF-kB SEAP reporter activity.
1.01

Can you look up the measured NF-kB SEAP reporter activity of C=C1CCC(O)CC1=CC=C1CCCC2(C)C1CCC2C(C)CCCC(C)C (configuration not stated) (library stock concentration (final ~1000-fold dilution): 1 mM) for me?
1.27

Returns the measured NF-kB SEAP reporter activity for the input molecule. Input: C=C1CCC2C(C)(CO)C(O)CCC2(C)C1C/C=C1/C(=O)OCC1O (configuration not stated) (library stock concentration (final ~1000-fold dilution): 10 mM)
0.65

If you can, please state the reported NF-kB SEAP reporter activity value of O=C(CCNC(=O)c1ccc(OC(F)(F)F)cc1)NC1CCCc2ccccc21 (configuration not stated) (library stock concentration (final ~1000-fold dilution): 10 mM) .
0.68

Which NF-kB SEAP reporter activity is reported for this molecule? CCO.N#CC(=C(\N)Sc1ccccc1N)/C(C#N)=C(/N)Sc1ccccc1N (library stock concentration (final ~1000-fold dilution): 10 mM)
0.146

Entry under review: Cc1c(-c2ccc(C(N)=O)c3[nH]c4cc(C(C)(C)O)ccc4c23)cccc1-n1cnc2ccccc2c1=O (library stock concentration (final ~1000-fold dilution): 10 mM) . Reported NF-kB SEAP reporter activity?
0.833

Entry CNC1CN(c2ccc3c(=O)c(C(=O)O)cn(-c4nccs4)c3n2)CC1OC.Cl (configuration not stated) (library stock concentration (final ~1000-fold dilution): 2 mM) : reported NF-kB SEAP reporter activity = ?
1.18

Fill in: NF-kB SEAP reporter activity of CC(=N)NCc1cccc(CN)c1.Cl.Cl (library stock concentration (final ~1000-fold dilution): 10 mM) is ___
0.859

What value of measured NF-kB SEAP reporter activity is listed for CC12CC(O)C3CC1(O[C@@H]1O[C@H](CO)[C@@H](O)[C@H](O)[C@H]1O)C3(COC(=O)c1ccccc1)C(=O)O2 (some centres not stated) (library stock concentration (final ~1000-fold dilution): 10 mM) ?
1.06

Query (molecule): O=C(O)/C(S)=C/c1c[nH]c2ccc(F)cc12 (library stock concentration (final ~1000-fold dilution): 10 mM) ; field requested: NF-kB SEAP reporter activity
0.934
